Could you please report measured RLU for the items listed next?
- TGT: mouse Tas2r105 (Mus musculus, UniProt Q9JKT4)
- Construct: expressed in transfected cells; host or cells: HEK293T-Gα16gust44
- Sequence (Q9JKT4 whole entry): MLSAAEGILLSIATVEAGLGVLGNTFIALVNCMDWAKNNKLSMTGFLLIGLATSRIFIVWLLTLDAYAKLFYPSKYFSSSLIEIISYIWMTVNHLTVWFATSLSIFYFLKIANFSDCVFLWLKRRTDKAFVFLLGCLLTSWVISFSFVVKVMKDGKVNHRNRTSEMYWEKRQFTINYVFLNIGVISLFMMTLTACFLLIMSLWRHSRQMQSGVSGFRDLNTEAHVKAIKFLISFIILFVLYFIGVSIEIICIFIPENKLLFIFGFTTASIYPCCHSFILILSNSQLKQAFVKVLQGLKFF
- PROTOCOL_NOTES: Calcium imaging assay (FLIPR), HEK293T-Gα16gust44 cells transfected with mouse Tas2r105
- Assay type: cell-based
- CONDITION_DETAILS: Time 70.781 s

C[C@H](CCC(=O)O)[C@H]1CC[C@H]2[C@@H]3CC[C@@H]4C[C@H](O)CC[C@]4(C)[C@H]3CC[C@]12C = 132.904 RLU
C[C@H](CCC(=O)O)[C@H]1CC[C@H]2[C@@H]3[C@H](O)C[C@@H]4C[C@H](O)CC[C@]4(C)[C@H]3C[C@H](O)[C@]12C = 424.457 RLU
C[C@H](CCC(=O)NCC(=O)O)[C@H]1CC[C@H]2[C@@H]3[C@H](O)C[C@@H]4C[C@H](O)CC[C@]4(C)[C@H]3C[C@H](O)[C@]12C = 443.973 RLU

Below: the item to evaluate.
-- ask What reported RLU corresponds to C[C@H](CCC(=O)O)[C@H]1CC[C@H]2[C@@H]3CC[C@@H]4C[C@H](O)CC[C@]4(C)[C@H]3C[C@H](O)[C@]12C on mouse Tas2r105 (Mus musculus, UniProt Q9JKT4)?
-- reply 42.8161 RLU

====

- TGT: human TAS2R1 (Homo sapiens)
- Construct: expressed in transfected cells; host or cells: HEK293T-Gα16gust44
- PROTOCOL_NOTES: Calcium imaging assay (FLIPR), HEK293T-Gα16gust44 cells transfected with human TAS2R1
- Assay type: cell-based
- CONDITION_DETAILS: Time 74.781 s
Please respond with reported RLU for every item in the list.
Numbers only, in RLU.

C[C@H](CCC(=O)O)[C@H]1CC[C@H]2[C@@H]3CC[C@@H]4C[C@H](O)CC[C@]4(C)[C@H]3C[C@H](O)[C@]12C [Deoxycholic Acid, deoxycholic acid] = 421.511

For each of the molecules below, note its RLU.
1. C[C@H](CCC(=O)NCCS(=O)(=O)O)[C@H]1CC[C@H]2[C@@H]3[C@H](O)C[C@@H]4C[C@H](O)CC[C@]4(C)[C@H]3C[C@H](O)[C@]12C [Taurocholic Acid, taurocholic acid]
2. C[C@H](CCC(=O)NCCS(=O)(=O)O)[C@H]1CC[C@H]2[C@@H]3CC[C@@H]4C[C@H](O)CC[C@]4(C)[C@H]3CC[C@]12C [Taurolithocholic Acid, taurolithocholic acid]
3. C[C@H](CCC(=O)NCC(=O)O)[C@H]1CC[C@H]2[C@@H]3[C@H](O)C[C@@H]4C[C@H](O)CC[C@]4(C)[C@H]3C[C@H](O)[C@]12C [Glycocholic Acid, glycocholic acid]

-- reply
[413.176, 715.629, 603.445]

====

- TGT: human TAS2R14 (Homo sapiens)
- Construct: expressed in transfected cells; host or cells: HEK293T-Gα16gust44
- PROTOCOL_NOTES: Calcium imaging assay (FLIPR), HEK293T-Gα16gust44 cells transfected with human TAS2R14
- Format: cell-based
- CONDITION_DETAILS: TAS2R14 trace; Time (s) 18 (Taurocholic Acid 18.016)
- Protocol: This set of bile acids was chosen because of their commercial availability in high purities, their diversity within the class of bile acids and their previous detection and quantitation in human blood. Stock solutions were prepared in DMSO. […] Measured data were negative control corrected by subtracting the signal of the mock-transfected cells and exported to Microsoft Excel using the FLIPR software ScreenWorks 4.2. […]
PROPERTY: RLU (RLU)
One number for each entry, in RLU.

Consider the following illustrative entries.
C[C@H](CCC(=O)NCC(=O)O)[C@H]1CC[C@H]2[C@@H]3[C@H](O)C[C@@H]4C[C@H](O)CC[C@]4(C)[C@H]3C[C@H](O)[C@]12C = -34
C[C@H](CCC(=O)NCCS(=O)(=O)O)[C@H]1CC[C@H]2[C@@H]3[C@H](O)C[C@@H]4C[C@H](O)CC[C@]4(C)[C@H]3C[C@H](O)[C@]12C = -43.8232

Dear reader, for each entry below, please note its RLU.
1. C[C@H](CCC(=O)NCCS(=O)(=O)O)[C@H]1CC[C@H]2[C@@H]3CC[C@@H]4C[C@H](O)CC[C@]4(C)[C@H]3CC[C@]12C
2. C[C@H](CCC(=O)O)[C@H]1CC[C@H]2[C@@H]3[C@H](O)C[C@@H]4C[C@H](O)CC[C@]4(C)[C@H]3CC[C@]12C
3. C[C@H](CCC(=O)O)[C@H]1CC[C@H]2[C@@H]3[C@H](O)C[C@@H]4C[C@H](O)CC[C@]4(C)[C@H]3C[C@H](O)[C@]12C

-- reply
1: -63.8827; 2: -32.8497; 3: -30.2662

====

- TGT: human TAS2R14 (Homo sapiens, UniProt Q9NYV8)
- Construct: expressed in transfected cells; host or cells: HEK293T-Gα16gust44
- Sequence (Q9NYV8 1-317): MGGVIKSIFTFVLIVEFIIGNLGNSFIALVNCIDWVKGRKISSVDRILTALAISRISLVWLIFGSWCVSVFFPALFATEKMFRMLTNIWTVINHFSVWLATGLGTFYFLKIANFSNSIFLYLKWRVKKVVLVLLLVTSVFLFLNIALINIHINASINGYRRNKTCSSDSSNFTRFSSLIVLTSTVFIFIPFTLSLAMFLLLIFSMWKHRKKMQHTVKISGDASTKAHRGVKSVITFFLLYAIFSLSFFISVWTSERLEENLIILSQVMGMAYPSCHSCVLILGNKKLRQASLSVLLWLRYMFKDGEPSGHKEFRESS
- PROTOCOL_NOTES: Calcium imaging assay (FLIPR), HEK293T-Gα16gust44 cells transfected with human TAS2R14
- Format: cell-based
- CONDITION_DETAILS: TAS2R14 trace; Time (s) 80.797 (Chenodeoxycholic Acid 80.781)
Task for the reader: assign each of the following compounds its reported RLU.
Numbers only, in RLU.

Consider the worked cases shown below.
C[C@H](CCC(=O)O)[C@H]1CC[C@H]2[C@@H]3[C@H](O)C[C@@H]4C[C@H](O)CC[C@]4(C)[C@H]3C[C@H](O)[C@]12C = 1026.08
C[C@H](CCC(=O)NCCS(=O)(=O)O)[C@H]1CC[C@H]2[C@@H]3[C@H](O)C[C@@H]4C[C@H](O)CC[C@]4(C)[C@H]3C[C@H](O)[C@]12C = 724.676
C[C@H](CCC(=O)O)[C@H]1CC[C@H]2[C@@H]3[C@H](O)C[C@@H]4C[C@H](O)CC[C@]4(C)[C@H]3CC[C@]12C = 604.524
C[C@H](CCC(=O)NCCS(=O)(=O)O)[C@H]1CC[C@H]2[C@@H]3CC[C@@H]4C[C@H](O)CC[C@]4(C)[C@H]3CC[C@]12C = 290.533

// moving on: another record for RLU
-- ask Please look up its RLU: C[C@H](CCC(=O)NCC(=O)O)[C@H]1CC[C@H]2[C@@H]3[C@H](O)C[C@@H]4C[C@H](O)CC[C@]4(C)[C@H]3C[C@H](O)[C@]12C
-- reply 737.493

====

For each record, write down the corresponding RLU.
- TGT: mouse Tas2r144 (Mus musculus)
- Construct: expressed in transfected cells; host or cells: HEK293T-Gα16gust44
- Sequence (Q7TQB8 whole entry): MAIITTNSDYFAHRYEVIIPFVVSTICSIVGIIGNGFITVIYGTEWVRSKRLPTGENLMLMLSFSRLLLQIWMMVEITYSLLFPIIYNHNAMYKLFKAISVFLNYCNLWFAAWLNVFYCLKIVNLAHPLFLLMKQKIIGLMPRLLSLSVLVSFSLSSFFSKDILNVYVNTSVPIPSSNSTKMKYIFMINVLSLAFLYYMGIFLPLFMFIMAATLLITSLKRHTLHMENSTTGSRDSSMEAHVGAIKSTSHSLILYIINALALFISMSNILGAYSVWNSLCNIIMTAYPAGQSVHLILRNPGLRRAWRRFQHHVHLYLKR
- PROTOCOL_NOTES: Calcium imaging assay (FLIPR), HEK293T-Gα16gust44 cells transfected with mouse Tas2r144
- Type: cell-based
- CONDITION_DETAILS: Time 58.781 s
Answers are plain numbers, in RLU.

Field: example entries. Status: answers known.
C[C@H](CCC(=O)NCCS(=O)(=O)O)[C@H]1CC[C@H]2[C@@H]3CC[C@@H]4C[C@H](O)CC[C@]4(C)[C@H]3CC[C@]12C = 388.738
C[C@H](CCC(=O)NCCS(=O)(=O)O)[C@H]1CC[C@H]2[C@@H]3[C@H](O)C[C@@H]4C[C@H](O)CC[C@]4(C)[C@H]3C[C@H](O)[C@]12C = 553.568
C[C@H](CCC(=O)NCC(=O)O)[C@H]1CC[C@H]2[C@@H]3[C@H](O)C[C@@H]4C[C@H](O)CC[C@]4(C)[C@H]3C[C@H](O)[C@]12C = 425.176

Moving on to another compound below.
-- ask Given C[C@H](CCC(=O)O)[C@H]1CC[C@H]2[C@@H]3[C@H](O)C[C@@H]4C[C@H](O)CC[C@]4(C)[C@H]3C[C@H](O)[C@]12C , state its recorded RLU.
-- reply 678.513

====

Please respond with reported RLU for every item in the list.
- TGT: human TAS2R1 (Homo sapiens, UniProt Q9NYW7)
- Construct: expressed in transfected cells; host or cells: HEK293T-Gα16gust44
- Sequence (Q9NYW7 1-299): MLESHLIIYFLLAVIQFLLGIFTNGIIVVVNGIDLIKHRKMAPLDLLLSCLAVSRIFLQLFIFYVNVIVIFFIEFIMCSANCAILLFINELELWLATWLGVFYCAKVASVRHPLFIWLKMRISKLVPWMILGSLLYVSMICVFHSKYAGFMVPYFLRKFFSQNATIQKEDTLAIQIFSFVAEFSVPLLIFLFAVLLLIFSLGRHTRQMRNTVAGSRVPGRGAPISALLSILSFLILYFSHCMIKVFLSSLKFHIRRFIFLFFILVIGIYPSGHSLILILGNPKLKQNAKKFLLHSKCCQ
- PROTOCOL_NOTES: Calcium imaging assay (FLIPR), HEK293T-Gα16gust44 cells transfected with human TAS2R1
- Format: cell-based
- CONDITION_DETAILS: Time 203.562 s
One number for each entry, in RLU.

Check out these entries, answers already filled in.
C[C@H](CCC(=O)O)[C@H]1CC[C@H]2[C@@H]3[C@@H](O)C[C@@H]4C[C@H](O)CC[C@]4(C)[C@H]3CC[C@]12C [Ursodeoxycholic Acid, ursodeoxycholic acid] = 46.8203
C[C@H](CCC(=O)O)[C@H]1CC[C@H]2[C@@H]3[C@H](O)C[C@@H]4C[C@H](O)CC[C@]4(C)[C@H]3CC[C@]12C [Chenodeoxycholic Acid, chenodeoxycholic acid] = 327.574
C[C@H](CCC(=O)O)[C@H]1CC[C@H]2[C@@H]3CC[C@@H]4C[C@H](O)CC[C@]4(C)[C@H]3CC[C@]12C [Lithocholic Acid, lithocholic acid] = 468.151

-- ask Endpoint output: RLU of C[C@H](CCC(=O)O)[C@H]1CC[C@H]2[C@@H]3[C@H](O)C[C@@H]4C[C@H](O)CC[C@]4(C)[C@H]3C[C@H](O)[C@]12C [Cholic Acid, cholic acid] . Value?
-- reply 106.514
